- Test system: MS2 coat protein
- protocol: apparent KD of MS2 coat protein; designed switch direction (-1 OFF switch, 1 ON switch): 1; higher = weaker reporter binding
- assay-setup: input ligand: none
assay-endpoint: apparent KD of MS2 coat protein (nM)

GGUAGGUUACUACCAAACAUGAGGAUCACCCAUGUAAAUGGGAAGGAUAUGGUACCUAUUUGGUACCAGAAGGUCCAAAUAAUU [Mat - Same State NG 3 - JL Mod - D95] (Eterna round: R96, puzzle: Same State NG 3) = 1410
GAGAGACGAUUAGGAUAUCCGGUGAUAAUGAUAGGAGAAGGAAUUGACAUGAGGAUCACCCAUGUGGGAAUAAUCCAGAGAGAG [Parity 24 - Jieux - Same State NG 1] (Eterna round: R96, puzzle: Same State NG 1) = 89.7
